measurement target: PAF receptor (Oryctolagus cuniculus)
Construct: platelet membranes were prepared by centrifugation and washing; tissue Pel-Freez (Rogers, AR)
assay protocol: PAF receptor binding assay ([^3 H]C18 -PAF, rabbit platelet membranes)
condition: 0.6 nM [^3 H]C18 -PAF, 60 min, 22-23 °C, Ki from IC50 by Cheng and Prusoff
Counter-ions that a name gives are not always drawn.
The label is YES for Ki below 0.4 µM and NO for Ki equal to or exceeding 0.4 µM.

Record O=C(c1ccccc1)c1ccc(NCC2CSC(c3cccnc3)N2)cc1 (centres unmarked) : is its Ki strictly below 0.4 µM?
NO

Record CN1C(CNc2cccc(C(=O)c3ccccc3)c2)CSC1c1cccnc1 (centres unmarked) [Example 9, dihydrochloride] : is its Ki strictly below 0.4 µM?
NO

Record c1ccc(Oc2ccc(NCC3CSC(c4cccnc4)N3)cc2)cc1 (centres unmarked) : is its Ki strictly below 0.4 µM?
YES

Record COc1cc(C(=O)c2cccc(NC[C@H]3CC[C@H](c4cccnc4)N3)c2)cc(OC)c1OC (relative stereo) [13 (trans)] : is its Ki strictly below 0.4 µM?
NO

Record CN(CC1CSC(c2cccnc2)N1)c1cccc(C(=O)c2ccccc2)c1 (centres unmarked) [Example 12, trihydrochloride] : is its Ki strictly below 0.4 µM?
NO

Record O=C(c1ccccc1)c1ccccc1NCC1CSC(c2cccnc2)N1 (centres unmarked) : is its Ki strictly below 0.4 µM?
NO

Record O=C(NCC1CSC(c2cccnc2)N1)Nc1cccc(C(=O)c2ccccc2)c1 (centres unmarked) [Example 15, dihydrochloride] : is its Ki strictly below 0.4 µM?
YES

Record O=C(c1ccccc1)c1cccc(NCC2CSC(c3cccnc3)N2)c1 (centres unmarked) [Example 5, trihydrochloride] : is its Ki strictly below 0.4 µM?
YES

====

Please respond with reported pKi for every item in the list.
measurement target: PAF receptor (Oryctolagus cuniculus, UniProt G1TEI7)
Construct: platelet membranes were prepared by centrifugation and washing; tissue Pel-Freez (Rogers, AR)
Sequence (G1TEI7 1-342): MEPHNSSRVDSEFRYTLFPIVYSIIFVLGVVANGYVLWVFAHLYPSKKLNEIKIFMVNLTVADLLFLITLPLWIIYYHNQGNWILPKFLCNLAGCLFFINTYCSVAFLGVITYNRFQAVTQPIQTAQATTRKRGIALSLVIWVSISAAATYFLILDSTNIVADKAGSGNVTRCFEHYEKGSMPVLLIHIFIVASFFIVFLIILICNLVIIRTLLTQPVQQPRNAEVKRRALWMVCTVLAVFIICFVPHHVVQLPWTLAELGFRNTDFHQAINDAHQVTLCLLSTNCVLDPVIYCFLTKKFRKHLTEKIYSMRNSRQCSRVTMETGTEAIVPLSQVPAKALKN
assay protocol: PAF receptor binding assay ([^3 H]C18 -PAF, rabbit platelet membranes)
condition: 0.6 nM [^3 H]C18 -PAF, 60 min, 22-23 °C, Ki from IC50 by Cheng and Prusoff
A value of pKi is the negative decimal logarithm of a concentration given in moles per litre.

Give the measured pKi of CC(C)(C)OC(=O)N1C(CNc2cccc(C(=O)c3ccccc3)c2)CSC1c1cccnc1 (stereo not shown) [Example 3] .
5.06

Give the measured pKi of COc1cc(C(=O)c2cccc(NCC3CSC(c4cccnc4)N3C(=O)OC(C)(C)C)c2)cc(OC)c1OC (single isomer, unassigned) [Example 1a] .
5.17

Give the measured pKi of O=C(c1ccccc1)c1cccc(NCC2CSC(c3cccnc3)N2)c1 (stereo not shown) [Example 4] .
7.64

Give the measured pKi of O=C(c1ccccc1)c1cccc(NCC2CSC(c3cccnc3)S2)c1 (stereo not shown) [Example 11] .
6.80
